# System: VSV*ΔG(Luc)-S virus (SARS-CoV-2 spike, D614G)
# EXPERIMENTAL PARAMETERS: read-out: EC50 HLT
REPORTED METRIC: EC50

In [3]: df
Out[3]:
                                   molecule  reported_metric    result
0  CC1=C(CC(=O)O)c2cc(F)ccc2/C1=C\c1ccc([S+](C)[O-])cc1 (stereo not shown) [Sulindac]             EC50  > 100 µM
1  CCCCCCCCCCCCOS(=O)(=O)[O-].[Na+] [SLS, Sodium lauryl sulfate]             EC50  > 100 µM
2  O=c1cc(-c2ccc(O)c(O)c2)oc2cc(O)cc(O)c12 [Luteolin]             EC50  ~82.4 µM
3  CC(C)[C@H](N)C(=O)OCCOCn1cnc2c(=O)[nH]c(N)nc21 [Valaciclovir]             EC50  > 100 µM
